# key: entry, value: combination Emax
system: PFSK-1 (Other Solid Carcinomas); test: combination Emax (second highest fraction inhibited in the dose matrix, 72 h); higher = more inhibition; extreme values may be limits of the assay

[
  {
    "COMPOUND": "Cn1cnc2c(F)c(Nc3ccc(Br)cc3Cl)c(C(=O)NOCCO)cc21 [Selumetinib] + CCN(CCO)CCCOc1ccc2c(Nc3cc(CC(=O)Nc4cccc(F)c4)[nH]n3)ncnc2c1 [AZD2811] (first compound max 10 µM, 7x7, partner max 1 µM)",
    "combination Emax": 0.313
  }
]

Exam item: Bench note: what combination Emax did CC1(C)CCC(CN2CCN(c3ccc(C(=O)NS(=O)(=O)c4ccc(NCC5CCOCC5)c([N+](=O)[O-])c4)c(Oc4cnc5[nH]ccc5c4)c3)CC2)=C(c2ccc(Cl)cc2)C1 [Venetoclax] + C[C@@H]1COCCN1C2=NC(=NC(=C2)C3(CC3)[S@](=N)(=O)C)C4=C5C=CNC5=NC=C4 [AZD6738] (first compound max 1 µM, 7x7, partner max 10 µM) show?
Marked response: 0.685
